Origin of values: PubChem BioAssay (NCI)

# TGI values compiled below
System: UO-31 renal
Experiment description: NCI tumour cell line growth inhibition, 48 h

Some molecules with known TGI results, for comparison:
COP(=O)(OC)c1ccc(NCc2cc(O)ccc2O)cc1 | 29.3 µM
CC1C2CC(CC2N)C1(C)C (stereo unspecified) | > 100 µM
COc1ccc(/C=N\NC(=O)Nc2cccc3ccccc23)cc1 | > 100 µM
O=C1c2ccccc2-c2nnc(-c3ccc(Cl)cc3)cc21 | > 10 µM

Which TGI is listed for Cc1nc2c(Cl)cc(Cl)cc2c(Cl)c1CCCl ?
> 100 µM

====

Tested on: OVCAR-3 ovarian
Experiment description: NCI tumour cell line growth inhibition, 48 h; in the data active = GI50 below about 0.43 µM; inactive = the rest
Your answer must be one of the following: true = active, false = inactive

These solved cases illustrate the format of a correct answer.
COc1ccc2c3c(c4ccccc4cc13)C(=O)N(CCN(C)CCN)C2=O | true
CN[C@@H]1C[C@H]2O[C@@](C)([C@@H]1OC)n1c3ccccc3c3c4c(c5c6ccccc6n2c5c31)C(=O)N[C@H]4O | true
CCN(CC)CCCC(C)Nc1c2ccc(Cl)cc2nc2cc(OC)c(OC)cc12 (stereo not given) | false
Nc1nc2ccc3[nH]ncc3c2c2c1CCCC2 | false
COc1cc(-c2csc(NC(=O)Nc3cc(C(F)(F)F)cc(C(F)(F)F)c3)n2)cc(OC)c1OC | false
CC1(C)N=C(N)N=C(N)N1c1ccc(CCc2ccc(Cl)cc2S(=O)(=O)F)c(Cl)c1 | false

Hi, sorry to bother you, what did the test record for C=C1C(=O)O[C@@H]2OC3(C)CCC4C(C)CCC1C42OO3 (stereo not given in full) ?
false

Hi, sorry to bother you, what did the test record for COc1ccc(C2=Nc3c/c(=C\c4c(O)[nH]c5ccc(Cl)cc45)ccc3=N2)cc1 ?
false

Hi, sorry to bother you, what did the test record for OC(C1CO1)C(O)C1CO1 (stereo not given) ?
false

Hi, sorry to bother you, what did the test record for CN1C(=O)C(=Cc2cn(Cc3ccccc3)c3ccccc23)C(=O)N(C)C1=O ?
false

====

# TGI values compiled below
Test system: HCC-2998 colon
Experiment description: NCI tumour cell line growth inhibition, 48 h
Give the value, in units of µM, as a plain number.

Cn1cc(-c2nc(-c3c[nH]c4ccncc34)cs2)c2cc(F)ccc21 | 3.08

Now for the compound whose TGI we want.
Which TGI is listed for Cc1cc([N+](=O)[O-])ccc1NS(=O)(=O)c1cc(Cl)ccc1Cl ?
18

====

System: NCI-H522 lung
Experiment description: NCI tumour cell line growth inhibition, 48 h
# TGI values compiled below

Which TGI is listed for O=C(Cc1ccccc1)N=Nc1c(O)[nH]c2ccccc12 ?
> 100 µM

====

Tested on: SW-620 colon
Experiment description: NCI tumour cell line growth inhibition, 48 h
# TGI values compiled below

Some compounds with known TGI results, for comparison:
O=C(NN1C(=O)CSC1c1ccco1)c1ccncc1 (centres undefined) | > 100 µM
CCOC(=O)c1cc2c(cn1)[nH]c1cccc(N)c12 | > 100 µM
CC1=C(C(=O)Nc2ccc([N+](=O)[O-])cc2)C(c2ccccc2O)C(C(=O)Nc2ccc([N+](=O)[O-])cc2)=C(C)N1 | 94.1 µM
Clc1cccc(N2CCN(CCN3CCc4c([nH]c5ccccc45)C3c3cccnc3)CC2)c1 (centres undefined) | > 100 µM
COc1cc(F)cc([C@@H](CO)NC(=O)[C@@H](C)N2Cc3ccc(-c4nc(NC5CCOCC5)ncc4Cl)cc3C2=O)c1 | > 100 µM
C[C@H](CN1CC(=O)NC(=O)C1)N1CC(=O)NC(=O)C1 | > 84.4 µM
C/C(CC(=O)Nc1ccc(Cl)cc1)=N\NC(=O)C[n+]1ccccc1 | > 100 µM
CN[C@@H]1C[C@H]2O[C@@](C)([C@@H]1OC)n1c3ccccc3c3c4c(c5c6ccccc6n2c5c31)C(=O)N[C@H]4O | > 5.91 µM

Param readout= TGI; system= SW-620 colon; entry= COc1ccc(/C=N/n2cnc3c(c2=O)S/C(=C2/SC(=S)N(c4ccc(C)cc4)C2=O)N3c2ccccc2)cc1 ; returns value.
> 100 µM
